The measured values listed here are drawn from PubChem BioAssay (EPA / NIEHS).

test: Tanguay_ZF_120hpf_AXIS_legacy: (Legacy) Oregon State University Tanguay Lab 120 Hour Post-fertilization zebrafish Assay for Body Axis Malformation (AID 2283635)
Records with an inconclusive call do not appear. Activity calls are given as the source filed them. The calls were made as follows: active = hit-call score of the fitted dose curve at least 0.9, where 1 is the maximum; inconclusive = response in the unintended direction; inactive = score below 0.9.
The categories you may choose from are TRUE = active, FALSE = inactive

Given OC(CCl)CCl , state the outcome it received in this test.
FALSE

And for O=C(O)c1cccc(C[C@@H]2COc3ccc(OCc4nc5cc(F)ccc5s4)cc3[C@@H]2O)c1 ?
TRUE

And for c1ccc(C(O[C@@H]2CCCN(CCc3ccc4c(c3)OCO4)C2)c2ccccc2)cc1 ?
TRUE

And for CCOC(N)=O ?
FALSE

And for OCCNCCO ?
FALSE

And for COc1cc(C(C)C)c2c(c1)S(=O)(=O)N(COc1cc(=O)n3cccc(OCCN4CCCCC4)c3n1)C2=O ?
TRUE
